# Test system: CASKI
# assay_overview: Primary qHTS to identify gynecologic anti-cancer compounds using libraries of approved drugs and bioactive compounds (AID 1345084); note: nearly all actives have a fitted effect of over 55% in size
# test_conditions: Gynecologic cancer cell panel viability, ATPlite luminescence, 48 h; series mostly up to 57.5 µM
Results filed as inconclusive are left out. Calls of active or inactive are those of the source. Calls come from the whole dose curve; as a rule, active = well fitted cell-killing curve with a large enough effect; inconclusive = small, poorly fitted or top-dose-only effect, or effect the other way; inactive = flat fitted curve, though single readings scatter.
Outcome codes: active, inactive

compound	qualitative_label
CC(C)c1cc(C(=O)N2CC[C@@H](NC(=O)C3CC3)C2)n[nH]1	inactive
CC1(C)CCC2(C(=O)OC3OC(CO)C(O)C(O)C3O)CCC3(C)C(=CCC4C5(C)CCC(O)C(C)(C(=O)O)C5CCC43C)C2C1O (stereo unspecified)	inactive
Cn1cc(-c2ccc3nnc(Sc4ccc5nn(C)cc5c4)n3n2)cn1	inactive
COc1ccc(C(=O)n2c(C)c(Cc3cccc(O[C@@H](C)C(=O)O)c3)c3cc(OC(F)(F)F)ccc32)cc1	inactive
CC(C)C(NC(=O)c1ccc2ccccc2n1)C(=O)NC(CC(=O)O)C(=O)COc1c(F)cccc1F (stereo unspecified)	inactive
C=C[C@@H]1[C@H](O[C@@H]2O[C@H](CO)[C@@H](O)[C@H](O)[C@H]2O)OC=C(C(=O)O)[C@H]1CCOC(=O)/C=C/c1ccc(O)c(O)c1	inactive
C[C@@H]1C[C@@H](O)[C@@]23CO[C@@H](O)[C@@H]2CCC[C@@H]3[C@@]12C[C@@H](c1ccoc1)OC2=O	inactive
CC(=O)O[C@]1(C(C)=O)CC[C@H]2[C@@H]3C[C@H](C)C4=CC(=O)C=C[C@]4(C)[C@@]3(F)[C@@H](O)C[C@@]21C	inactive
CC1(C)CC2=C3C=CC4C5(C)CCC(O)C(C)(C)C5CCC4(C)C3(C)CCC2(C)C(O)C1 (stereo unspecified)	inactive
CC1=CC(=O)C2C(C)(C)CCC[C@]2(C)[C@H]1CO (stereo partly specified)	inactive
O=C(c1cc2c(cc1F)OC(c1ccc(F)cc1)(c1ccc(Cl)cc1Cl)O2)N1CCOCC1 (stereo unspecified)	inactive
O=C(O[C@H]1[C@@H]2C[C@@H]3OC[C@](O)([C@@H]1Cl)[C@H]2C(O[C@@H]1O[C@H](CO)[C@@H](O)[C@H](O)[C@H]1O)O3)c1ccc(O)c(O)c1 (stereo partly specified)	inactive
CC(C)c1ccc(CO)cc1O[C@@H]1O[C@H](CO)[C@@H](O)[C@H](O)[C@H]1O	inactive
CC[C@@H](O)C[C@@H]1C(C)=C[C@@H]2CCCC[C@@H]2[C@@]1(C)C(=O)O	inactive
COc1cc(N2CCC(N3CCN(C)CC3)CC2)ccc1Nc1ncc(Cl)c(-c2c[nH]c3ccccc23)n1	active
CC(C)CC(=O)O[C@@H]1OC=C(CO[C@@H]2O[C@H](CO)[C@@H](O)[C@H](O)[C@H]2O)[C@H]2[C@@H]3O[C@H]3[C@@](O)(CO)[C@@H]12	inactive
O=C(N/N=C/c1ccc(O)c(O)c1)c1cc2ccccc2cc1O	inactive
C/C=C(\C)C(=O)O[C@H]1[C@@H](O[C@]2(COC(=O)CC(C)C)O[C@H](COC(=O)C(C)CC)[C@@H](OC(C)=O)[C@@H]2O)O[C@H](COC(C)=O)[C@@H](O)[C@@H]1O (stereo partly specified)	inactive
CC[C@]1(O)CC2CN(CCc3c([nH]c4ccccc34)[C@@](C(=O)OC)(c3cc4c(cc3OC)N(C=O)[C@H]3[C@@](O)(C(=O)OC)[C@H](OC(C)=O)[C@]5(CC)C=CCN6CC[C@]43[C@@H]65)C2)C1 (stereo partly specified)	active
CC1(CCOC2OC(CO)C(O)C(O)C2O)CCC23OC2(C1)C(O)CC1C(C)(C(=O)O)CCCC13C (stereo unspecified)	inactive
COCCN1CCN(Cc2ccc(-c3n[nH]c4c3C(=O)c3c(NC(=O)NN5CCOCC5)cccc3-4)cc2)CC1	active
N#Cc1ccc(-c2cnc3[nH]cc(NC(=O)c4cccnc4)c3c2)cc1	inactive
CS(=O)(=O)c1ccc(-c2nnc(/C=C/c3nnc(-c4ccc(C#N)cc4)o3)n2-c2ccccc2Cl)nc1	inactive
C=CC(=O)Nc1cc(Nc2ncc(Cl)c(-c3c[nH]c4ccccc34)n2)c(OC)cc1N(C)CCN(C)C	active
O=C(/C=C/c1ccc(O)cc1)N[C@@H](Cc1ccc(O)cc1)C(=O)O	inactive
COc1cc(Br)c(Nc2nc(-c3c(C)nc4ncccn34)cs2)c(Br)c1	inactive
C/C1=C\CC[C@H](C)CCO[C@@H]2O[C@H](CO[C@@H]3OC[C@](O)(COC1=O)[C@H]3O)[C@@H](O)[C@H](O)[C@H]2O	inactive
O=S(=O)(c1ccc(S(=O)(=O)n2cnc3ccccc32)cc1)N1CCCCCC1	inactive
CC(=O)O[C@@H](CO[C@@H]1O[C@H](CO)[C@H](O)[C@H](O)[C@H]1O)[C@]1(C)C=C2CC[C@@H]3C(C)(C)[C@@H](O)CC[C@@]3(C)[C@@H]2CC1	inactive
O=C1OCc2cc3cccc(O[C@@H]4O[C@H](CO)[C@@H](O)[C@H](O)[C@H]4O)c3c(O)c21	inactive
COc1cc(Br)c(S(=O)(=O)Nc2ccc(C(F)(F)F)c(O[C@@H]3CCN(C)C3)c2)cc1OC	inactive
